- target.or.system: Human neutrophil elastase (Homo sapiens (Human))
- procedure.summary: Human Neutrophil Elastase Assay
- condition.label: substrate MeOSuc-Ala-Ala-Pro-Val-AMC 250 μM, pH 7.5, fluorescence
pIC50: −log10 of the molar value.
measured.metric: pIC50

Below are worked cases with known answers.
{"molecule": "Cc1cc(S(C)(=O)=O)ccc1CNC(=O)c1cn(C(C)C)c(C)c(-c2cccc(C(F)F)c2)c1=O [Example 37]", "measured.metric": "pIC50", "readout.value": 7.57}
{"molecule": "CCn1cc(C(=O)NCc2ccc(S(C)(=O)=O)cn2)c(=O)c(-c2cccc(C(F)(F)F)c2)c1C [Example 2.1]", "measured.metric": "pIC50", "readout.value": 7.24}
{"molecule": "Cc1c(-c2cccc(C(F)F)c2)c(=O)c(C(=O)NCc2ccc(S(C)(=O)=O)cc2)cn1C(C)C [Example 4.14]", "measured.metric": "pIC50", "readout.value": 7.96}
{"molecule": "COCCn1cc(C(=O)NCc2ccc(S(C)(=O)=O)c[n+]2[O-])c(=O)c(-c2cccc(C(F)(F)F)c2)c1C [Example 16]", "measured.metric": "pIC50", "readout.value": 7.20}
{"molecule": "Cc1c(-c2cccc(C(F)(F)F)c2)c(=O)c(C(=O)NCc2ccc([S+](C)[O-])cc2)cn1C(C)C (single isomer, unassigned) [Example 27.1A]", "measured.metric": "pIC50", "readout.value": 8.27}

(A) CCC(CC)n1cc(C(=O)NCc2ccc(S(C)(=O)=O)cc2)c(=O)c(-c2ccnc(C(F)(F)F)c2)c1C [Example 15.3]
(B) CC[C@H](C)n1cc(C(=O)NCc2ccc(S(C)(=O)=O)cn2)c(=O)c(-c2cccc(C(F)F)c2)c1C [Example 20.2]
Problem: Compare the recorded pIC50 of A and B ; state which is larger. Identify your selection by its label.
Result: B
(B: 7.96, A: 7.62)

* * *

- target.or.system: Human neutrophil elastase (Homo sapiens (Human))
- procedure.summary: Human Neutrophil Elastase Assay
- condition.label: substrate MeOSuc-Ala-Ala-Pro-Val-AMC 250 μM, pH 7.5, fluorescence
measured.metric: IC50 (nM)
Answer in nM, number only, no unit symbol.

Below are worked cases with known answers.
{"compound": "Cc1c(-c2cccc(C(F)(F)F)c2)c(=O)c(C(=O)NCc2ccc(S(C)(=O)=O)cc2)cn1CC1CC1(F)F (stereo not drawn)", "IC50 [nM]": 37}
{"compound": "CCCn1cc(C(=O)NCc2ccc(S(C)(=O)=O)cc2)c(=O)c(-c2cccc(C(F)(F)F)c2)c1C", "IC50 [nM]": 28}

Problem: Name the recorded IC50 of the item "CCC(CC)n1cc(C(=O)NCc2ccc(S(C)(=O)=O)cn2)c(=O)c(-c2ccnc(C(F)(F)F)c2)c1C" in your answer.
Result: 46

* * *

- target.or.system: Human neutrophil elastase (Homo sapiens (Human), UniProt P08246)
- Sequence (P08246 30-267): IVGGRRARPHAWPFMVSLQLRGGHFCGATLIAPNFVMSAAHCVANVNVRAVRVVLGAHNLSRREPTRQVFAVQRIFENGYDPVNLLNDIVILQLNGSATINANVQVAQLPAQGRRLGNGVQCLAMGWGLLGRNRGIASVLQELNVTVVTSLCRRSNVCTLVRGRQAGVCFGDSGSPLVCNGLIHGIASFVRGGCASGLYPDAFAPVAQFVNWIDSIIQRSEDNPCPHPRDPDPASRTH
- procedure.summary: Human Neutrophil Elastase Assay
- condition.label: substrate MeOSuc-Ala-Ala-Pro-Val-AMC 250 μM, pH 7.5, fluorescence
- Protocol: Human Neutrophil Elastase Assay All other materials were of the highest grade commercially available. […] Assay conditions: Test compounds were prediluted in DMSO and subsequently in compound buffer (5% DMSO final). […] After inactivation of the enzyme, fluorescence intensities were measured at 380 nm excitation and 460 nm emission wavelengths. […]
measured.metric: IC50 (nM)

Below are worked cases with known answers.
{"molecule": "Cc1nnc(CNC(=O)c2cn(C3CCC3)c(C)c(-c3cccc(C(F)(F)F)c3)c2=O)o1 [Example 24.1]", "units.of.measure": "nM", "IC50": 57}
{"molecule": "Cc1c(-c2cccc(C(F)(F)F)c2)c(=O)c(C(=O)NCc2cccnn2)cn1C(C)C [Example 3.3]", "units.of.measure": "nM", "IC50": 90}
{"molecule": "Cc1c(-c2cccc(C(F)F)c2)c(=O)c(C(=O)NCc2ccc(C#N)cc2)cn1C(C)C [Example 4.5]", "units.of.measure": "nM", "IC50": 51}

(A) CC[C@@H](C)n1cc(C(=O)NCc2ccc(S(C)(=O)=O)cc2)c(=O)c(-c2ccnc(C(F)(F)F)c2)c1C [Example 11.2]
(B) Cc1c(-c2cccc(C(F)F)c2)c(=O)c(C(=O)NCc2cccnn2)cn1C(C)C [Example 4.1]
(C) Cc1c(-c2cccc(C(F)(F)F)c2)c(=O)c(C(=O)NCc2ccc([S+](C)[O-])cc2)cn1C(C)C (racemic) [Example 27.1]
(D) Cc1c(-c2cccc(C(F)(F)F)c2)c(=O)c(C(=O)NCc2ccc(S(=O)(=O)C3CC3)cc2)cn1C(C)C [Example 31]
Problem: Thanks in advance: please rank these 4 entries by IC50, highest to lowest. Output spec: a listing of the labels in the requested order.
Result: B, A, C, D
(B: 98 nM, A: 35 nM, C: 9 nM, D: 5.2 nM)

(I) Cc1c(-c2cccc(C(F)(F)F)c2)c(=O)c(C(=O)NCc2ccc(S(C)(=O)=O)cc2F)cn1C(C)C [Example 34]
(II) Cc1cc(CNC(=O)c2cn(C(C)C)c(C)c(-c3cccc(C(F)(F)F)c3)c2=O)ccc1S(C)(=O)=O [Example 28.1]
Problem: Given the listed items, does I or II have the lesser reported IC50? Identify your selection by its label.
Result: II
(II: 7 nM, I: 26 nM)

(A) Cc1c(-c2cccc(C(F)(F)F)c2)c(=O)c(C(=O)NCc2ccc(S(C)(=O)=O)cc2)cn1C1CCC1 [Example 7]
(B) Cc1c(-c2cccc(C(F)F)c2)c(=O)c(C(=O)NCc2cnn(C)c2)cn1C(C)C [Example 4.2]
Problem: Compare the recorded IC50 of A and B ; state which is larger. Identify your selection by its label.
Result: B
(B: 60 nM, A: 27 nM)

* * *

- target.or.system: Human neutrophil elastase (Homo sapiens (Human), UniProt P08246)
- procedure.summary: Human Neutrophil Elastase Assay
- condition.label: substrate MeOSuc-Ala-Ala-Pro-Val-AMC 250 μM, pH 7.5, fluorescence
pIC50: −log10 of the molar value.
measured.metric: pIC50

{"compound": "CC[C@@H](C)n1cc(C(=O)NCc2nnc(C)o2)c(=O)c(-c2cccc(C(F)F)c2)c1C [Example 25.2]", "pIC50": 7.52}
{"compound": "Cc1c(-c2cccc(C(F)F)c2)c(=O)c(C(=O)NCc2ccc3c(c2)C=CS3(=O)=O)cn1C(C)C [Example 50]", "pIC50": 8.11}
{"compound": "COC[C@H](C)n1cc(C(=O)NCc2ccc(S(C)(=O)=O)cc2)c(=O)c(-c2cccc(C(F)F)c2)c1C [Example 42]", "pIC50": 8.09}
{"compound": "CC[C@@H](C)n1cc(C(=O)NCc2ccc(S(C)(=O)=O)cn2)c(=O)c(-c2ccnc(C(F)(F)F)c2)c1C [Example 19.3]", "pIC50": 7.40}

(P) Cc1c(-c2cccc(C(F)(F)F)c2)c(=O)c(C(=O)NCc2ccc(CN3CCCC3=O)cc2)cn1C(C)C [Example 3.9]
(Q) Cc1c(-c2cccc(C(F)(F)F)c2)c(=O)c(C(=O)NCc2ccc3c(c2)C=CS3(=O)=O)cn1C(C)C [Example 48]
Problem: Compare the recorded pIC50 of P and Q ; state which is larger. Identify your selection by its label.
Result: Q

* * *

- target.or.system: Human neutrophil elastase (Homo sapiens (Human))
- procedure.summary: Human Neutrophil Elastase Assay
- condition.label: substrate MeOSuc-Ala-Ala-Pro-Val-AMC 250 μM, pH 7.5, fluorescence
measured.metric: IC50 (nM)

{"compound": "Cc1c(-c2cccc(C(F)(F)F)c2)c(=O)c(C(=O)NCc2ccc(S(C)(=O)=O)cn2)cn1C1CCOC1 (stereo not shown)", "IC50 / nM": 27}
{"compound": "CCC(CC)n1cc(C(=O)NCc2ccc(S(C)(=O)=O)cn2)c(=O)c(-c2cccc(C(F)F)c2)c1C", "IC50 / nM": 5}
{"compound": "Cc1c(-c2ccnc(C(F)(F)F)c2)c(=O)c(C(=O)NCc2ccc(S(C)(=O)=O)cc2)cn1C(C)C", "IC50 / nM": 72}
{"compound": "CCS(=O)(=O)c1ccc(CNC(=O)c2cn(C(C)C)c(C)c(-c3cccc(C(F)(F)F)c3)c2=O)cc1", "IC50 / nM": 13}

(1) Cc1c(-c2cccc(C(F)(F)F)c2)c(=O)c(C(=O)NCc2ccc(S(C)(=O)=O)cc2)cn1C(C)C
(2) COC[C@@H](C)n1cc(C(=O)NCc2ccc(S(C)(=O)=O)cc2)c(=O)c(-c2cccc(C(F)F)c2)c1C
Problem: Given the listed items, does 1 or 2 have the lesser reported IC50? Identify your selection by its label.
Result: 1
